# targetUnderTest: T1, human glucose-dependent insulinotropic polypeptide (GIP) receptor (human, UniProt P48546 22-466)
# T1 sequence (looked up): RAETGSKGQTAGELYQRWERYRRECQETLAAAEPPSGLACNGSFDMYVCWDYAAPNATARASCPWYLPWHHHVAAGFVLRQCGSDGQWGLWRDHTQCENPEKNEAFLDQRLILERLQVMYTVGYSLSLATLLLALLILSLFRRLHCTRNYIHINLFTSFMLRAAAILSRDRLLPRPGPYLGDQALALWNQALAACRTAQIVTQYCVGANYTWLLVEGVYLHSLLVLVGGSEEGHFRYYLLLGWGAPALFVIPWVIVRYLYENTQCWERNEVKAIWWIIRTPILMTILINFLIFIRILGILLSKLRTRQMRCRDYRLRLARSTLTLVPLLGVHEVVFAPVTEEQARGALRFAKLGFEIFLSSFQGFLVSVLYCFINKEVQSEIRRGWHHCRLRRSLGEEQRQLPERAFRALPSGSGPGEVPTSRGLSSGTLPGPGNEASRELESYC
# assayMethodText: cell-based or functional assay
*1 amine or outer side, *2 acyl side, *3 side chain or, on linkers, in order; H or OH if unused. Where no end group is shown, it is not given here. Side-chain parts run from the residue outwards. [ ]: non-standard residue; d: D form. The star is where a group is joined. Butanoyl(4-(4-tBuPh)) = CC(C)(C)c1ccc(CCCC(=O)*)cc1; αMePhe(2-F) = C[C@](N)(Cc1ccccc1F)C(=O)O; γGlu = O=C(O)[C@H](CCC(=O)[*:2])N[*:1]; αMeY = C[C@](N)(Cc1ccc(O)cc1)C(=O)O; αMeL = CC(C)C[C@](C)(N)C(=O)O; Orn = NCCC[C@H](N)C(=O)O; AEEA = NCCOCCOCC(=O)O; Aib = CC(C)(N)C(=O)O
Mark each entry MET if its cAMP EC50 sits below 0.03 nM, and NOT MET for all others.

{"columns": ["binder", "groupLabel"],
 "data": [
  ["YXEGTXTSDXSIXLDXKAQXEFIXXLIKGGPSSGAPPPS (Aib2, αMeF(2F)6, 4Pal10, αMeL13, Orn16, K17(Z), Aib20, D-Glu24, αMeY25, K28(Z), C-terminal NH2; Z = AEEA3-(γ-Glu)-CO-(CH2)12-CO2H) [Example 224]", "NOT MET"],
  ["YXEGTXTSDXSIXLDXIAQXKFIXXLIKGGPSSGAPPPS (Aib2, αMeF(2F)6, OMeY10, αMeL13, Orn16, Aib20, K21(Z), D-Glu24, αMeY25, K28(Z), C-terminal NH2; Z = AEEA2-(γ-Glu)-(10-(4-carboxyphenoxy)decanoyl)) [Example 280]", "MET"],
  ["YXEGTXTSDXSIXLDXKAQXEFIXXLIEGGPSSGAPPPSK (Aib2, αMeF(2F)6, OMeY10, αMeL13, Orn16, K17(Z), Aib20, D-Glu24, αMeY25, K40(Z), C-terminal NH2; Z = AEEA2-CO-(CH2)12-CO2H) [Example 267]", "MET"],
  ["Y[Aib]EGT[αMePhe(2-F)]TSDV[Aib]I[αMeL]LD[Orn]K([AEEA-AEEA-γGlu-Butanoyl(4-(4-tBuPh))])AQ[Aib]EFI[dE][αMeY]LIEGGK([AEEA-AEEA-γGlu-Butanoyl(4-(4-tBuPh))])SSGAPPPS-NH2 [Example 177]", "NOT MET"],
  ["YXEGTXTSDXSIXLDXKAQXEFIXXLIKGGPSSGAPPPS (Aib2, αMeF(2F)6, 2Nal10, αMeL13, Orn16, K17(Z), Aib20, D-Glu24, αMeY25, K28(Z), C-terminal NH2; Z = AEEA2-(γ-Glu)-CO-(CH2)12-CO2H) [Example 250]", "MET"],
  ["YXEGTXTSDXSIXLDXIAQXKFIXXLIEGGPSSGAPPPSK (Aib2, αMeF(2F)6, 4Pal10, αMeL13, Orn16, Aib20, K21(Z), D-Glu24, αMeY25, K40(Z), C-terminal NH2; Z = AEEA2-CO-(CH2)12-CO2H) [Example 196]", "MET"],
  ["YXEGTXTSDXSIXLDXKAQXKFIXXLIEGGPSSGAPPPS (Aib2, αMeF(2F)6, 4Pal10, αMeL13, Orn16, K17(Z), Aib20, K21(Z), D-Glu24, αMeY25, C-terminal NH2; Z = AEEA-(γ-Glu)-(4-(4-tert-butylphenyl)butanoyl)) [Example 207]", "MET"],
  ["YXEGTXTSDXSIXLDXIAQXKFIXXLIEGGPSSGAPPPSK (Aib2, αMeF(2F)6, OMeY10, αMeL13, Orn16, Aib20, K21(Z), D-Glu24, αMeY25, K40(Z), C-terminal NH2; Z = AEEA2-(γ-Glu)-CO-(CH2)12-CO2H) [Example 264]", "MET"],
  ["YXEGTXTSDXSIXLDXIAQXEFIKXLIEGGKSSGAPPPS (Aib2, αMeF(2F)6, 4Pal10, αMeL13, Orn16, Aib20, K24(Z), αMeY25, K31(Z), C-terminal NH2; Z = (εK)-(γ-Glu)-CO-(CH2)12-CO2H) [Example 197]", "NOT MET"],
  ["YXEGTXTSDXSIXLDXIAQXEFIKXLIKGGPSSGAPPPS (Aib2, αMeF(2F)6, OMeY10, αMeL13, Orn16, Aib20, K24(Z), αMeY25, K28(Z), C-terminal NH2; Z = AEEA2-(γ-Glu)-CO-(CH2)12-CO2H) [Example 262]", "NOT MET"]
]}
